Target: Jun-Jun bZIP R259A (human, UniProt P05412 252-315, R259A)
Sequence (P05412 252-315 R259A): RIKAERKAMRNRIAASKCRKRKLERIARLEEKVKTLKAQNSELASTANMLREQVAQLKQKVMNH
Test: ITC
measured_property: Kd (µM)
Please reply with the bare figure in µM and do not write the unit itself.

Field Kd (entry TRE duplex 15-mer (dsDNA) DNA 1: CGCGTGACTCACCCC DNA 2: GGGGTGAGTCACGCG ) reads 5.25
